biological target: DAT (Homo sapiens, UniProt Q01959); assay: PDSP radioligand displacement receptor assay, DAT; assay type: binding; details: secondary binding assay, test compound 1 to 10,000 nM
Sequence (Q01959 whole entry, species assumed): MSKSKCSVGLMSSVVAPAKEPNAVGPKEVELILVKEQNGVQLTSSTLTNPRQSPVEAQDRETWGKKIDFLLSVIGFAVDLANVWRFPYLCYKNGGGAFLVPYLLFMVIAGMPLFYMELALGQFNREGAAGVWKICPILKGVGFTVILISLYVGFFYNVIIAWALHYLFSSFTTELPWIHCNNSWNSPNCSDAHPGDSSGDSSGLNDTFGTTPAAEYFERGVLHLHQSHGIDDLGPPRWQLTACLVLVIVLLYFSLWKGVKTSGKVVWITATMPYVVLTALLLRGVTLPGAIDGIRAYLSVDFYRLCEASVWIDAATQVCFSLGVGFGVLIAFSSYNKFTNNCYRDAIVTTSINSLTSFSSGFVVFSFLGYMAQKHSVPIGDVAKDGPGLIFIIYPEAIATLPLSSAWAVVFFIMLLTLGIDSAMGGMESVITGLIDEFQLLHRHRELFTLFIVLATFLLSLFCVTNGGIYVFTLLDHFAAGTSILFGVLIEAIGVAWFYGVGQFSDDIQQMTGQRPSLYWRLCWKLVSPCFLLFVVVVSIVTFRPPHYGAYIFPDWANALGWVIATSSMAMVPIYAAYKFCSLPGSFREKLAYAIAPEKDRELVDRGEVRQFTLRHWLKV
MEASURED PARAMETER: Ki (nM)
Reply numerically in nM, unit not repeated.

Given Cc1sc(-c2ccccc2O)nc1C=O [Compound 5] , state its recorded Ki. 5180

###

Molecular target: 5HT-2B receptor (Homo sapiens)
Sequence (P41595 whole entry): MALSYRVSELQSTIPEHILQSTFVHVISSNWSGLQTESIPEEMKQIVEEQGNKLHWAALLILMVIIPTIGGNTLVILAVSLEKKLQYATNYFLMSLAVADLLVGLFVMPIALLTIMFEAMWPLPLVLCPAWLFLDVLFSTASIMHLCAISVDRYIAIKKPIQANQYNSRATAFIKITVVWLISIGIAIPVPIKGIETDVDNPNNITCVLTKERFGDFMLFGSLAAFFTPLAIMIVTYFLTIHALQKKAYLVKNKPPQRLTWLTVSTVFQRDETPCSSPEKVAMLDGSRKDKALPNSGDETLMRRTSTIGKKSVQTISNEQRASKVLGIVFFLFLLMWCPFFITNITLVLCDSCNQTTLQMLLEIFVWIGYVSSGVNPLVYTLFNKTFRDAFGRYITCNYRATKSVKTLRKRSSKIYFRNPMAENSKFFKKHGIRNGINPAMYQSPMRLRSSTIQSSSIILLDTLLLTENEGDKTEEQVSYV
Test: PDSP radioligand displacement receptor assay, 5HT2B
Type: binding
Conditions: secondary binding assay, test compound 1 to 10,000 nM; read-out: Ki (nM) 5HT2B
Protocol: Receptor affinity assays were carried out according to methods as described at http://pdsp.med.unc.edu/ (accessed on Oct. 13, 2010). Initial hits were obtained in radioligand displacement assays. […] Representative activity is highlighted in the table below showing in radioligand displacement activity at 10 μM of the in dicated compound. Ki was determined as indicated.
Rule for this label: True means Ki is less than 1000 nM; False means Ki is at least 1000 nM.

Please determine if NC(=O)C1CSC(c2ccccc2O)=N1 (stereo not drawn) is below 1000 nM in terms of Ki. False

Identify whether the compound "C[C@@H]1SC(c2ccccc2O)=N[C@H]1[C@@H]1SC[C@](C)(C(=O)O)N1C" records Ki below 1000 nM. False

Is the reported Ki for "Cc1sc(-c2ccccc2O)nc1C=O" strictly below 1000 nM? False

Determine if "OC[C@@H]1CSC(c2ccccc2O)=N1" shows Ki strictly lower than 1000 nM. False

# strict comparison: is reported Ki < 1000 nM? input = "C[C@@H]1SC(c2ccccc2O)=N[C@H]1[C@H]1SC[C@](C)(C(=O)O)N1C" False

Take the compound "C[C@@H]1SC(c2ccccc2O)=N[C@@H]1CO" and say whether its Ki is less than 1000 nM. True

###

target: 5HT-2B receptor (Homo sapiens); test: PDSP radioligand displacement receptor assay, 5HT2B; assay type: binding; details: secondary binding assay, radioligand displacement; read-out: Ki (nM) vs 5-HT2B
MEASURED PARAMETER: Ki (nM)
The reply should contain only the number, in nM.

Hi! What's the reported Ki for "NC(=O)c1csc(-c2ccccc2O)n1" on 5HT-2B receptor (Homo sapiens)? 1030

###

target: UniProt:P41145; assay: PDSP radioligand displacement receptor assay, KOR; assay type: binding; settings: radioligand displacement, primary assay, 10 μM compound
The label depends only on inhibition at 10 µM: T if it is at least 40%, F if it is smaller.

Say whether "C[C@@H]1SC(c2ccccc2O)=N[C@@H]1CO" shows inhibition at 10 µM of 40% or more. T

Please check the record "C[C@@H]1SC(c2ccccc2O)=N[C@H]1[C@@H]1SC[C@](C)(C(=O)O)N1C" and state if its inhibition at 10 µM is at or above 40%. T

Exam item: decide whether the reported inhibition at 10 µM for NC(=O)C1CSC(c2ccccc2O)=N1 (stereo not shown) is at least 40%. T

Identify whether the reported inhibition at 10 µM of the following compound is 40% or greater: "NC(=O)c1csc(-c2ccccc2O)n1" F

Is inhibition at 10 µM at least 40%? Consider "C[C@@H]1SC(c2ccccc2O)=N[C@H]1[C@H]1SC[C@](C)(C(=O)O)N1C" F

Does the reported inhibition at 10 µM for "OC[C@@H]1CSC(c2ccccc2O)=N1" fall at or above the 40% mark? T

Is reported inhibition at 10 µM greater than or equal to 40% here: "Cc1sc(-c2ccccc2O)nc1C=O" F

###

biological target: histamine H1 receptor (Homo sapiens, UniProt P35367); test: PDSP radioligand displacement receptor assay, H1; format: binding; conditions: radioligand displacement, primary assay, 10 μM compound
Sequence (P35367 whole entry, species assumed): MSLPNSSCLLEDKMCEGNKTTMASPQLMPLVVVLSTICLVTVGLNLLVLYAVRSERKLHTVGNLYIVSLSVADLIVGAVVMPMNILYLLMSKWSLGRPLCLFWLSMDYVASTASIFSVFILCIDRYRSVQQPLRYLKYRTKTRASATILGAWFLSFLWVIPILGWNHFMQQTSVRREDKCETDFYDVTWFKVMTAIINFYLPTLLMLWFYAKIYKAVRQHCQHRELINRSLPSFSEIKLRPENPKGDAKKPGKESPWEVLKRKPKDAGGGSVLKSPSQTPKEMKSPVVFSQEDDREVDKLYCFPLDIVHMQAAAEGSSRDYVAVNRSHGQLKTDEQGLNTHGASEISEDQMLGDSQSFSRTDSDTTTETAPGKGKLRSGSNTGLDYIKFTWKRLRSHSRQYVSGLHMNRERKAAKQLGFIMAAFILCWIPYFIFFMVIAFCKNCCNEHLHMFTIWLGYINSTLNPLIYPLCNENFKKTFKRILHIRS
MEASURED PARAMETER: inhibition at 10 µM (%)
Just the number in %, nothing appended.

// returns reported inhibition at 10 µM for input "OC[C@@H]1CSC(c2ccccc2O)=N1" 39

Name the reported inhibition at 10 µM value associated with the compound "C[C@@H]1SC(c2ccccc2O)=N[C@@H]1CO" 45.8

// query inhibition at 10 µM value for entry "C[C@@H]1SC(c2ccccc2O)=N[C@H]1[C@H]1SC[C@](C)(C(=O)O)N1C" -3

Give the measured inhibition at 10 µM of NC(=O)C1CSC(c2ccccc2O)=N1 (stereo not shown) . 71.6

# inhibition at 10 µM lookup, item "Cc1sc(-c2ccccc2O)nc1C=O" 42.5

Field request: inhibition at 10 µM | item: "NC(=O)c1csc(-c2ccccc2O)n1" 88

Which inhibition at 10 µM value is on record for "C[C@@H]1SC(c2ccccc2O)=N[C@H]1[C@@H]1SC[C@](C)(C(=O)O)N1C" ? 16.3

###

Please respond with reported inhibition at 10 µM for every item in the list.
target: UniProt Q01959; experiment: PDSP radioligand displacement receptor assay, DAT; format: binding; settings: radioligand displacement, primary assay, 10 μM compound
Write the value in % as a bare number.

Param item = "OC[C@@H]1CSC(c2ccccc2O)=N1" ; retrieve measured inhibition at 10 µM. -1.5

Would you mind telling me what inhibition at 10 µM value was observed for "C[C@@H]1SC(c2ccccc2O)=N[C@H]1[C@H]1SC[C@](C)(C(=O)O)N1C" ? -0.3

What measured inhibition at 10 µM goes with "NC(=O)c1csc(-c2ccccc2O)n1" ? 2.4

Could you tell me which inhibition at 10 µM is on file for "C[C@@H]1SC(c2ccccc2O)=N[C@H]1[C@@H]1SC[C@](C)(C(=O)O)N1C" ? 83.8

So what's the measured inhibition at 10 µM for this one? "C[C@@H]1SC(c2ccccc2O)=N[C@@H]1CO" 6

Endpoint output: inhibition at 10 µM of "Cc1sc(-c2ccccc2O)nc1C=O" . Value? 88.3

Given the compound NC(=O)C1CSC(c2ccccc2O)=N1 (stereo not shown) , what is its reported inhibition at 10 µM? 13.8

###

So I've got a bunch of compounds here, and I need their inhibition (10 μM) Ca2+ Channel values.
system: Ca2+ Channel; assay: PDSP radioligand displacement receptor assay, Ca2+ channel; assay type: binding; settings: radioligand displacement, primary assay, 10 μM compound
Please reply with the bare figure in % and do not write the unit itself.

So what does the record say about inhibition (10 μM) Ca2+ Channel for "C[C@@H]1SC(c2ccccc2O)=N[C@H]1[C@@H]1SC[C@](C)(C(=O)O)N1C" ? 0.1

Please look up its inhibition (10 μM) Ca2+ Channel: NC(=O)C1CSC(c2ccccc2O)=N1 (stereo not drawn) −3.4

Record request: inhibition (10 μM) Ca2+ Channel value, item "Cc1sc(-c2ccccc2O)nc1C=O" −18.9

Return reported inhibition (10 μM) Ca2+ Channel; argument: "OC[C@@H]1CSC(c2ccccc2O)=N1" −0.7

Given the entry "NC(=O)c1csc(-c2ccccc2O)n1" , report its measured inhibition (10 μM) Ca2+ Channel. 29.6

Looking for the measured inhibition (10 μM) Ca2+ Channel of "C[C@@H]1SC(c2ccccc2O)=N[C@H]1[C@H]1SC[C@](C)(C(=O)O)N1C" , can you help? 110.4

###

biological target: kappa opioid receptor (Homo sapiens); assay: PDSP radioligand displacement receptor assay, KOR; assay type: binding; conditions: secondary binding assay, test compound 1 to 10,000 nM
Sequence (P41145 whole entry): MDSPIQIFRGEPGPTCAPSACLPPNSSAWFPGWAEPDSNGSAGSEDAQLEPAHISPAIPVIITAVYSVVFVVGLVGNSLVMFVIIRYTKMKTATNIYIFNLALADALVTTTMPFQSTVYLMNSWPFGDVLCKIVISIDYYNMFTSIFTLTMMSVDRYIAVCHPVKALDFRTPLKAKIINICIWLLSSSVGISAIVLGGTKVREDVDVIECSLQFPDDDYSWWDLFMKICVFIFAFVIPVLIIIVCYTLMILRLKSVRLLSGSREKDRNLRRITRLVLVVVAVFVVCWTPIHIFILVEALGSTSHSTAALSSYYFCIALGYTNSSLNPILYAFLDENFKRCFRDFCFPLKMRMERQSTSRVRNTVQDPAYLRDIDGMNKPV
MEASURED PARAMETER: Ki

Give recorded Ki with kappa opioid receptor (Homo sapiens) for the following compound: C[C@@H]1SC(c2ccccc2O)=N[C@@H]1CO [Compound 2] > 10000 nM

Provide the documented Ki with kappa opioid receptor (Homo sapiens) as the system for OC[C@@H]1CSC(c2ccccc2O)=N1 [Compound 1] > 10000 nM

Form: Entry = NC(=O)C1CSC(c2ccccc2O)=N1 (stereo not drawn) [Compound 8] | System = kappa opioid receptor (Homo sapiens) | Ki = ____ 3710 nM

###

target: Ca2+ Channel; experiment: PDSP radioligand displacement receptor assay, Ca2+ channel; format: binding; details: secondary binding assay, test compound 1 to 10,000 nM
Field: Ki. Provide a value for each of the compounds that follow.
Hi, when you answer, please include the unit after the number. Thanks!

Can you look up the measured Ki of C[C@@H]1SC(c2ccccc2O)=N[C@@H]1CO [Compound 2] for me? 6600 nM

Which Ki is reported for this compound? C[C@@H]1SC(c2ccccc2O)=N[C@H]1[C@H]1SC[C@](C)(C(=O)O)N1C [Compound 10] 9750 nM

###

biological target: 5HT-2B receptor (Homo sapiens); experiment: PDSP radioligand displacement receptor assay, 5HT2B; assay type: binding; conditions: radioligand displacement, primary assay, 10 μM compound
Please go through the items and note down their inhibition at 10 µM.

I would be grateful if you could share the reported inhibition at 10 µM for C[C@@H]1SC(c2ccccc2O)=N[C@@H]1CO [Compound 2] . 89.7%

// lookup inhibition at 10 µM for NC(=O)c1csc(-c2ccccc2O)n1 [Compound 7] 84.9%

Any idea what its inhibition at 10 µM is? The molecule is OC[C@@H]1CSC(c2ccccc2O)=N1 [Compound 1] 79.2%

Value lookup for inhibition at 10 µM; key = C[C@@H]1SC(c2ccccc2O)=N[C@H]1[C@H]1SC[C@](C)(C(=O)O)N1C [Compound 10] 40.3%

Record request: inhibition at 10 µM value, item NC(=O)C1CSC(c2ccccc2O)=N1 (stereo not shown) [Compound 8] 65.8%

I have this molecule here, C[C@@H]1SC(c2ccccc2O)=N[C@H]1[C@@H]1SC[C@](C)(C(=O)O)N1C [Compound 9] , and I need its recorded inhibition at 10 µM. 68%

Returns the measured inhibition at 10 µM for the input molecule. Input: Cc1sc(-c2ccccc2O)nc1C=O [Compound 5] 77%
